Listing of entries alongside the reported relative viability.
test system: PC-14; experiment: relative viability (nuclei count vs DMSO), 5 days (fraction); higher = more cells survive; conditions: first compound 0.002 µM
No unit in the answer, please; the number alone is enough.

Examples with their reported relative viability follow.
CC(=O)O[C@@]12CO[C@@H]1C[C@H](O)[C@@]1(C)C(=O)[C@H](O)C3=C(C)[C@@H](OC(=O)[C@H](O)[C@@H](NC(=O)OC(C)(C)C)c4ccccc4)C[C@@](O)([C@@H](OC(=O)c4ccccc4)[C@H]21)C3(C)C [Docetaxel] + O=C(CCCCCCC(=O)Nc1ccccc1)NO [Vorinostat] (partner 1 µM): 0.079
CC(=O)O[C@@]12CO[C@@H]1C[C@H](O)[C@@]1(C)C(=O)[C@H](O)C3=C(C)[C@@H](OC(=O)[C@H](O)[C@@H](NC(=O)OC(C)(C)C)c4ccccc4)C[C@@](O)([C@@H](OC(=O)c4ccccc4)[C@H]21)C3(C)C [Docetaxel] + Cc1cc(Nc2cc(N3CCN(C)CC3)nc(Sc3ccc(NC(=O)C4CC4)cc3)n2)n[nH]1 [Tozasertib] (partner 0.1 µM): 0.0877

Query: Please report relative viability for the following molecule: CC(=O)O[C@@]12CO[C@@H]1C[C@H](O)[C@@]1(C)C(=O)[C@H](O)C3=C(C)[C@@H](OC(=O)[C@H](O)[C@@H](NC(=O)OC(C)(C)C)c4ccccc4)C[C@@](O)([C@@H](OC(=O)c4ccccc4)[C@H]21)C3(C)C [Docetaxel] + CC(=O)c1c(C)c2cnc(Nc3ccc(N4CCNCC4)cn3)nc2n(C2CCCC2)c1=O [Palbociclib] (partner 0.5 µM)
Reply: 0.0828

Query: Please report relative viability for the following molecule: CC(=O)O[C@@]12CO[C@@H]1C[C@H](O)[C@@]1(C)C(=O)[C@H](O)C3=C(C)[C@@H](OC(=O)[C@H](O)[C@@H](NC(=O)OC(C)(C)C)c4ccccc4)C[C@@](O)([C@@H](OC(=O)c4ccccc4)[C@H]21)C3(C)C [Docetaxel] + COc1cccc2cc(-c3nc([C@H]4CC[C@H](C(=O)O)CC4)n4ncnc(N)c34)[nH]c12 [OSI-027] (partner 0.5 µM)
Reply: 0.121
